- Test system: HeLa
- EXPERIMENT SUMMARY: Cytotoxicity against human HeLa cells assessed as cell viability after 48 hrs by SRB assay
- Format: functional, cell-based
IC50 strictly less than 10 µM = Condition met. Otherwise Condition not met.

SMILES DATA: COc1cc(-c2nc3sc(C4CC4)nn3c2-c2ccc3ccccc3c2)cc(OC)c1OC
CATEGORY LABEL: Condition not met

SMILES DATA: CCc1nn2c(-c3cc(OC)c(OC)c(OC)c3)c(-c3cc(OC)c(OC)c(OC)c3)nc2s1
CATEGORY LABEL: Condition not met

Incoming: Strictly below 10 µM in IC50? CCc1nn2c(-c3ccccc3)c(-c3cc(OC)c(OC)c(OC)c3)nc2s1
Outgoing: Condition not met

Incoming: Strictly below 10 µM in IC50? COc1cc(-c2nc3sc(C4CC4)nn3c2-c2ccc(N(C)C)cc2)cc(OC)c1OC
Outgoing: Condition met

Incoming: Strictly below 10 µM in IC50? CCc1ccc(-c2c(-c3cc(OC)c(OC)c(OC)c3)nc3sc(C4CC4)nn23)cc1
Outgoing: Condition not met

* * *

- Tested on: HeLa
- EXPERIMENT SUMMARY: Induction of cell cycle arrest in human HeLa cells assessed as cell arrest at accumulation at G2/M phase at 5 uM after 24 hrs by flow cytometric analysis (reference value: 25.49%)
- Format: functional
Listed molecules paired with reported Activity
Could you give me the number in %? Just the number is fine.

Answered cases to consult:
SMILES DATA: COc1cc(-c2nc3sc(C4CC4)nn3c2-c2ccc(N(C)C)cc2)cc(OC)c1OC
SYSTEM UNDER TEST: HeLa
UNIT ABBREV: %
Activity: 72.5
--
SMILES DATA: CCc1nn2c(-c3ccc(N(C)C)cc3)c(-c3cc(OC)c(OC)c(OC)c3)nc2s1
SYSTEM UNDER TEST: HeLa
UNIT ABBREV: %
Activity: 67.53
--
SMILES DATA: COc1ccc(/C=C\c2cc(OC)c(OC)c(OC)c2)cc1O
SYSTEM UNDER TEST: HeLa
UNIT ABBREV: %
Activity: 83.95

Shift focus to the following entry.
Incoming: # query: Activity of entry CCc1nn2c(-c3ccc4ccccc4c3)c(-c3cc(OC)c(OC)c(OC)c3)nc2s1
Outgoing: 78.3

* * *

Listed compounds paired with reported IC50
- System: HeLa
- EXPERIMENT SUMMARY: Cytotoxicity against human HeLa cells assessed as cell viability after 48 hrs by SRB assay
- Assay type: functional, cell-based
Could you give me the number in µM? Just the number is fine.

COMPOUND: COc1cc(-c2nc3sc(C4CC4)nn3c2-c2ccc(F)c(Cl)c2)cc(OC)c1OC
PARAMETER: IC50
OBSERVED VALUE: 15.5

Incoming: # query: IC50 of entry COc1cc(-c2nc3sc(C4CC4)nn3c2-c2cc(F)cc(F)c2)cc(OC)c1OC
Outgoing: 17.3

Incoming: # query: IC50 of entry COc1cc(-c2nc3sc(C4CC4)nn3c2-c2ccc(OC(F)(F)F)cc2)cc(OC)c1OC
Outgoing: 11.3

Incoming: # query: IC50 of entry CCc1nn2c(-c3ccc(N(C)C)cc3)c(-c3cc(OC)c(OC)c(OC)c3)nc2s1
Outgoing: 2.2

Incoming: # query: IC50 of entry CCc1nn2c(-c3cc(F)cc(F)c3)c(-c3cc(OC)c(OC)c(OC)c3)nc2s1
Outgoing: 26.4

Incoming: # query: IC50 of entry CCc1ccc(-c2c(-c3cc(OC)c(OC)c(OC)c3)nc3sc(CC)nn23)cc1
Outgoing: 12.4

Incoming: # query: IC50 of entry CCc1nn2c(-c3ccc(Cl)cc3)c(-c3cc(OC)c(OC)c(OC)c3)nc2s1
Outgoing: 13.7

Incoming: # query: IC50 of entry COc1ccc(/C=C\c2cc(OC)c(OC)c(OC)c2)cc1O [COMBRETASTATIN A4]
Outgoing: 0.15

Incoming: # query: IC50 of entry CCc1nn2c(-c3ccc(F)cc3OC)c(-c3cc(OC)c(OC)c(OC)c3)nc2s1
Outgoing: 28.1
